Data origin, for the record: the Immune Epitope Database (IEDB)

Biological target: HLA-A*02:01
Assay: IEDB peptide-MHC binding, purified MHC/direct/fluorescence; filed as Kd, often an IC50 or EC50 that approximates it; bounds were set here for any values at or beyond the usual limits of such assays
Conditions: source organism: Yersinia pestis
Below, each entry is listed alongside its reported Kd.

Query sequence	Kd
QQSEARRML	703 nM

[ask] Observed Kd on HLA-A*02:01 for RPQLWRYRW , please.
[reply] ≥ 20000 nM

---

Biological target: HLA-B*57:01
Test: IEDB peptide-MHC binding, purified MHC/direct/fluorescence; filed as Kd, often an IC50 or EC50 that approximates it; bounds were set here for any values at or beyond the usual limits of such assays
Details: source organism: Yellow fever virus
Attribute measured: Kd (µM)
Write it as a number; the unit µM goes unstated.

[ask] Returns the measured Kd for the input sequence. Input: LAVMGDAAW
[reply] 0.0355
